Listing: IC50 of selected compounds
# test_system: Kv2.1 homotetramer (Homo sapiens, UniProt Q14721)
# Construct: full-length in eGFP-N1 vector, transiently expressed in mouse Ltk- cells; homotetramer
# Sequence (Q14721 whole entry): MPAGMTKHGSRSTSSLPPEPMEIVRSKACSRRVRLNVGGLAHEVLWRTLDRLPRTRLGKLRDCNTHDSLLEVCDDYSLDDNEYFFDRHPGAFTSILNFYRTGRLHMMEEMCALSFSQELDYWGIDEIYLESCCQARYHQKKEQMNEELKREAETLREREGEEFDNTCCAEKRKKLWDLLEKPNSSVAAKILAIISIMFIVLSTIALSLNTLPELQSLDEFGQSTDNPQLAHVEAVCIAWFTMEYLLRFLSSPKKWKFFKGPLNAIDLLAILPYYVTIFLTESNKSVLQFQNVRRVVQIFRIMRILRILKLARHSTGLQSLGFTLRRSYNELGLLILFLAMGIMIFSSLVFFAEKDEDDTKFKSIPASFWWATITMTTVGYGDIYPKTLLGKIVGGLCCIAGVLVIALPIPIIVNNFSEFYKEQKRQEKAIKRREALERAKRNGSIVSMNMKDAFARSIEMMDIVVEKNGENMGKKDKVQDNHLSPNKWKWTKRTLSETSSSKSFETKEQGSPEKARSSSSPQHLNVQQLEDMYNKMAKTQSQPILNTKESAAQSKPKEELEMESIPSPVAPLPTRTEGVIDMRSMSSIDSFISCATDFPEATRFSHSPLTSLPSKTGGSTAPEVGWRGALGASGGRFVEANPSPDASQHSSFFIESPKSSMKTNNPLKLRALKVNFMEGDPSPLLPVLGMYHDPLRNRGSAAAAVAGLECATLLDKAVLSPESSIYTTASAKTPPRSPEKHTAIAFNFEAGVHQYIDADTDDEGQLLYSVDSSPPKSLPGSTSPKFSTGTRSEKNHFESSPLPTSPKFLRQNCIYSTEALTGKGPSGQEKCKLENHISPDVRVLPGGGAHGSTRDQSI
# protocol_summary: whole-cell patch clamp, Hill fit of current at +[…] mV

>>> data_value("C=C[C@H]1C[N@@]2CC[C@H]1C[C@@H]2[C@@H](O)c1ccnc2ccc(OC)cc12")
"7.2 µM"

Could you now consider this next compound?
The reported IC50 of the compound O=C(NCC1CCCCN1)c1cc(OCC(F)(F)F)ccc1OCC(F)(F)F (centres unmarked) [flecainide] was 7.4 µM
